assay_system: ZFP SBS#303 (synthetic)
Sequence (chain, as listed by the source): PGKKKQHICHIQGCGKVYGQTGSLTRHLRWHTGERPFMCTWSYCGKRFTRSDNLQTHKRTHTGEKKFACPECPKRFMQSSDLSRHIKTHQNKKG
assay_remarks: EMSA
cond: tags: MBP fusion
pKd: −log10 of the molar value.

- binder: "GCTTAGGCA (dsDNA) DNA 1: GCTTAGGCA DNA 2: TGCCTAAGC"
  pKd: 6.87
